protocol summary: Cytotoxicity against Remb1 cells (unknown origin) assessed as cell killing after 24 hrs by MTT assay
Type: functional, cell-based
condition details: Remb1, 24 h
Here, each record is paired with measured IC50 data.

Solved entries (count: 4):
CC(C)=CCC[C@H](C)[C@@H]1C=C[C@]2(C(=O)O)[C@@H](CC(C)=C[C@H]2/C=C(\C)c2ccc(C(=O)O)cc2)C1 | > 20 µM
CC(C)=CCC[C@H](C)[C@H]1C=C[C@@]2(C(=O)O)[C@H](CC(C)=C[C@@H]2/C=C(\C)[C@H]2CC[C@H](C(=O)O)CC2)C1 | > 20 µM
CC(C)=CCC[C@@H](C)[C@@H]1C=C[C@]2(C(=O)O)[C@@H](CC(C)=C[C@H]2/C=C(\C)[C@H]2CC[C@H](C(=O)O)CC2)C1 | > 20 µM
CC(C)=CCC[C@@H](C)[C@H]1C=C[C@@]2(C(=O)O)[C@H](CC(C)=C[C@@H]2/C=C(\C)[C@H]2CC[C@H](C(=O)O)CC2)C1 | > 20 µM

Please find the next compound below.
I would be grateful if you could share the reported IC50 for CC(C)=CCC[C@@H](C)[C@@H]1C=C[C@]2(C(=O)O)[C@@H](CC(C)=C[C@H]2/C=C(\C)c2ccc(C(=O)O)cc2)C1 . 8.6 µM
